Reference for the values: PubChem BioAssay (NCATS)

# Experimental details: qHTS for differential inhibitors of proliferation of Plasmodium falciparum line GB4 (AID 1816);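 note: parasite growth measured after 72 h incubation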
# Cond: Plasmodium falciparum GB4 proliferation inhibition; series mostly up to 28.7 µM
Inconclusive results are not listed. Calls of active or inactive are those of the source. Calls come from the whole dose curve; as a rule, active = well fitted curve in the direction sought with a large enough effect; inconclusive = small, poorly fitted or top-dose-only effect, or another doubt; inactive = no such curve, though single readings can be large or run the other way.
Pick one: active, inactive

Prompt: Field: outcome | Entry: "C=Cc1c(C)c2cc3[nH]c(cc4nc(cc5nc(cc1[nH]2)C(C)=C5CCC(=O)O)C(CCC(=O)O)=C4C)c(C)c3C=C"
Response: inactive

Prompt: Here is the next molecule: "NC1CCN(c2cccc(Cl)n2)CC1"
Response: active

Prompt: Here is the next molecule: "Nc1cc(=O)[nH]c(N)n1"
Response: inactive

Prompt: Here is the next molecule: CSc1ccc2c(c1)C(N1CCN(C)CC1)Cc1ccccc1S2 (configuration not stated)
Response: active

Prompt: Here is the next molecule: "NC(N)=NCCC[C@H](N)C(=O)O"
Response: inactive

Prompt: Here is the next molecule: "CCN(CC)CCNC(=O)c1cc(Cl)c(N)cc1OC"
Response: inactive

Prompt: Here is the next molecule: "C#CCN(C)Cc1ccccc1"
Response: inactive

Prompt: Here is the next molecule: OCc1cc(C(O)CNCCCCCCOCCCCc2ccccc2)ccc1O (configuration not stated)
Response: active

Prompt: Here is the next molecule: CN1CCN(C2Cc3ccccc3Sc3ccc(Cl)cc32)CC1 (configuration not stated)
Response: active

Prompt: Here is the next molecule: "N=c1c[n+](N2CCOCC2)[n-]o1"
Response: inactive

Prompt: Here is the next molecule: "CC(C)NC[C@H](O)c1ccc(O)c(O)c1"
Response: inactive

Prompt: Here is the next molecule: CC(C)(C)c1onc(OCP(=O)(O)O)c1CC(N)C(=O)O (configuration not stated)
Response: inactive

Prompt: Here is the next molecule: "CC(C)C(=O)c1c(C(C)C)nn2ccccc12"
Response: inactive

Prompt: Here is the next molecule: "CCN(CC)CCOC(=O)C1(C2CCCCC2)CCCCC1"
Response: active

Prompt: Here is the next molecule: "CN(C)CCCN1c2ccccc2Sc2ccc(Cl)cc21"
Response: active

Prompt: Here is the next molecule: CC(C(O)c1ccc(O)cc1)N1CCC(Cc2ccccc2)CC1 (configuration not stated)
Response: active

Prompt: Here is the next molecule: CSc1ccc2c(c1)N(CCC1CCCCN1C)c1ccccc1S2 (configuration not stated)
Response: active

###

# Tested system: ATP-dependent 6-phosphofructokinase (Trypanosoma brucei brucei) (UniProt O15648)
# Sequence (O15648 whole entry, looked up): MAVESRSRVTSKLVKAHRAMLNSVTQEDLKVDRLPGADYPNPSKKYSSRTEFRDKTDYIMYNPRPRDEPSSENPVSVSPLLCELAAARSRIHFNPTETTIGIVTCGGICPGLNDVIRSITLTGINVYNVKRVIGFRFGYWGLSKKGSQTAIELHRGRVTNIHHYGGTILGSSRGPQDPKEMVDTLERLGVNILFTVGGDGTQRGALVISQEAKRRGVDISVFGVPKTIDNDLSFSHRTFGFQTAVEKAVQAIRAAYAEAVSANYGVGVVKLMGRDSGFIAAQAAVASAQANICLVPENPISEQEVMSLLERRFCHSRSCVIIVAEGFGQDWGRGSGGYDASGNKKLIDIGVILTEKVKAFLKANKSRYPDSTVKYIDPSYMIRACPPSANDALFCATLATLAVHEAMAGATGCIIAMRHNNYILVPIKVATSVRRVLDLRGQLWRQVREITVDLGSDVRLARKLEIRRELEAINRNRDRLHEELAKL
# Experimental details: qHTS Validation Assay to Find Inhibitors of T. brucei phosphofructokinase (AID 485368)
# Cond: T. brucei PFK enzyme assay, qHTS 7-point titration; series mostly up to 57.5 µM
Results filed as inconclusive are left out. Active and inactive are the calls of the source. Calls follow the shape of the dose curve; as a rule, active = well fitted inhibition curve with a large enough effect; inconclusive = small, poorly fitted or top-dose-only effect, or effect the other way; inactive = flat fitted curve, though single readings scatter.
Pick one: true (active), false (inactive)

Prompt: Field: outcome | Entry: "C=Cc1c(C)c2cc3[nH]c(cc4nc(cc5nc(cc1[nH]2)C(C)=C5CCC(=O)O)C(CCC(=O)O)=C4C)c(C)c3C=C"
Response: true

Prompt: Here is the next compound: "N=c1c[n+](N2CCOCC2)[n-]o1"
Response: false

Prompt: Here is the next compound: CNCC(O)c1ccc(O)c(O)c1 (centres undefined)
Response: false

Prompt: Here is the next compound: "OCCN1CCN(CCCN2c3ccccc3Sc3ccc(Cl)cc32)CC1"
Response: false

Prompt: Here is the next compound: "NC1CCN(c2cccc(Cl)n2)CC1"
Response: false

Prompt: Here is the next compound: "NC(=O)c1ncn([C@@H]2O[C@H](CO)[C@@H](O)[C@H]2O)n1"
Response: false

Prompt: Here is the next compound: "CC(C)NC[C@H](O)c1ccc(O)c(O)c1"
Response: false

Prompt: Here is the next compound: "Nc1ncnc2c1ncn2[C@@H]1O[C@H](CO)[C@@H](O)[C@H]1O"
Response: false

Prompt: Here is the next compound: "CCCCCCCCCCCCCCCC(=O)NCCO"
Response: false
